# assay.comment: Pharmacokinetic analysis (oral bioavailability, elimination half-life) in the rat
# Assay type: in vivo
# cond: plasma, 8 mg/kg, oral administration (Example 3)
measured.attribute: bioavailability (%)

CC(C)C[C@H]1NC(=O)[C@@H](C)N(C)C(=O)[C@H](C2CCCCC2)NC[C@H]2CCc3cccc(c3O2)CCCNC1=O    4

###

# study.system: CYP2D6 (Homo sapiens)
# Construct: purchased BD Gentest, Becton-Dickinson (Supersomes); host or cells: insect cells
# Sequence (P10635 whole entry): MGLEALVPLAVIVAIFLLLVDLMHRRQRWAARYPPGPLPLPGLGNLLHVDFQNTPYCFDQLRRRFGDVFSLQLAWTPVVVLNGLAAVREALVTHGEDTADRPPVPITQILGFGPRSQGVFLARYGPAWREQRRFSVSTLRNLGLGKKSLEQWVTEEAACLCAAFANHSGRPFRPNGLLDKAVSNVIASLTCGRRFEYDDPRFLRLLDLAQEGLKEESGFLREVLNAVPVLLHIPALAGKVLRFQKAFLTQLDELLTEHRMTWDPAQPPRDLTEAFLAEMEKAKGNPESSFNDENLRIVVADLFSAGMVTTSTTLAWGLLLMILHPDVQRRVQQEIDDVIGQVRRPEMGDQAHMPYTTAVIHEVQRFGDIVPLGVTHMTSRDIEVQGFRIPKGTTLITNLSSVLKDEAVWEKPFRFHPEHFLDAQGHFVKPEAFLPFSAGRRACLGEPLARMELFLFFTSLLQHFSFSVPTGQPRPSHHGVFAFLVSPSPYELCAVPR
# assay.comment: Cytochrome P450 inhibition, CYP2D6
# Type: in vitro ADME
# cond: read-out: IC50 2D6
Reported IC50 is given for each of the following compounds.
measured.attribute: IC50

CC1NC(C2CC2)C(=O)N(C)C(C)C(=O)NC(Cc2ccc(O)cc2)C(=O)NCCCc2ccccc2OC1C (stereo not drawn)    > 100 µM
CC(C)C[C@H]1NC(=O)[C@@H](C)N(C)C(=O)[C@H](C2CC2)NCCOc2cc(F)ccc2CC[C@H](C)NC1=O    > 100 µM
CC(C)CC1NC(=O)C(C)N(C)C(=O)C(C2CC2)NCC(C)OC2CCCCC2CCCNC1=O (mixture of isomers)    > 100 µM
C[C@@H]1C(=O)N[C@H](Cc2ccc(O)cc2)C(=O)NCCCc2cccc3c2O[C@H](CC3)CN[C@@H](C2CC2)C(=O)N1C    > 100 µM
CC(C)C[C@H]1NC(=O)[C@@H](C)N(C)C(=O)[C@H](C2CC2)NCCOc2cc(F)ccc2CCCNC1=O    > 100 µM
CC(C)C[C@H]1NC(=O)[C@@H](C)N(C)C(=O)[C@H](C2CC2)NCCOc2c(ccc(F)c2F)CCCNC1=O    > 100 µM
CC1CNC(C2CC2)C(=O)N(C)C(C)C(=O)NC(Cc2ccc(O)cc2)C(=O)NCCCC2CCCCC2O1 (mixture of isomers)    > 100 µM
CC(C)CC1NC(=O)C(C)N(C)C(=O)C(C2CCCCC2)NCC(C)OC2CCCCC2CCCNC1=O (mixture of isomers)    > 100 µM
C[C@@H]1C(=O)N[C@H](Cc2ccc(O)cc2)C(=O)NCCCc2ccc(F)cc2OCCN[C@@H](C2CC2)C(=O)N1C    > 100 µM
